Target: Bem1-1, P29366
Sequence (P29366 55-141): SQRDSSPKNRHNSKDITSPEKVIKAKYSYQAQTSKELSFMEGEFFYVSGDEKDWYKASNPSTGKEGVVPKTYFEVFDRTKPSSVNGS
Experiment: SPOT array
Conditions: median of control spots 4282
readout type: SPOT intensity

Kindly note the recorded SPOT intensity for QHQQRQPKRPKRYSL , which is 1

P = YLTRPLPSTPNEDSR
Q = GSKSGPPPRPKKPST
R = NLDRSKISLPDFDDE
INPUT: Rank the 3 binders: largest SPOT intensity first, smallest last. Reply with the item labels sorted in the order that was asked for.
OUTPUT: R, Q, P
(R: 3, Q: 1, P: 0)

1 = PIVPSSPAPPLPLSG
2 = LRIKRKPVQTFFEFI
INPUT: Which of these two has the smaller recorded SPOT intensity: 1 or 2 ? Respond with the label that goes with your answer.
OUTPUT: 1
(1: 0, 2: 1)

1 = GKKVRPLLVLLLSRA
2 = PSRRAPLQLPQLVNK
INPUT: Among 1 and 2 , which shows a numerically higher SPOT intensity result? Respond with the label that goes with your answer.
OUTPUT: 2

A = SPLGAPPPPPHKDHL
B = VAPPPLPNRQLPNLD
INPUT: Which of these two has the smaller recorded SPOT intensity: A or B ? Respond with the label that goes with your answer.
OUTPUT: A
